# TARGET DESC: PDE4A1A (Homo sapiens)
# Sequence (P27815 1-647 isoform P27815-4): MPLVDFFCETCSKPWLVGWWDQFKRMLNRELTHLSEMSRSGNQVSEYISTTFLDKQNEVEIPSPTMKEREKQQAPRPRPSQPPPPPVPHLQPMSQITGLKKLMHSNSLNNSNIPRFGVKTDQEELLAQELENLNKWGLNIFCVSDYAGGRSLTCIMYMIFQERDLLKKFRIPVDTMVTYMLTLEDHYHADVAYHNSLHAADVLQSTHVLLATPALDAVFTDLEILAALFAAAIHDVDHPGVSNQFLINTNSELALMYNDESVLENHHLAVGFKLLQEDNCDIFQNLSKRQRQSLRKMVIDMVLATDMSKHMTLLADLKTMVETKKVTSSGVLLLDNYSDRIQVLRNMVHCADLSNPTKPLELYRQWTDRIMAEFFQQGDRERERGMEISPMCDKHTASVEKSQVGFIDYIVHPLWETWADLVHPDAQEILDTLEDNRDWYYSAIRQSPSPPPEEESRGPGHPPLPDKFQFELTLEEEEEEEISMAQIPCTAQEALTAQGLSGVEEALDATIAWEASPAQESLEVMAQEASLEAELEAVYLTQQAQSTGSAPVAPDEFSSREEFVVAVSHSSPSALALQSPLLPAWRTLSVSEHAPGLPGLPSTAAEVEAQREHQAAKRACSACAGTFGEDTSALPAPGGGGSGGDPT
pIC50: −log10 of the molar value.

- CHEMICAL SMILES: "CCOc1ccccc1C(=O)NCc1coc(-c2ccc(OC(F)F)c(OC(C)C)c2)n1"
  pIC50: 8.14
